System Name: Prostaglandin G/H synthase 1 (Homo sapiens, UniProt P23219)
Sequence (P23219 whole entry): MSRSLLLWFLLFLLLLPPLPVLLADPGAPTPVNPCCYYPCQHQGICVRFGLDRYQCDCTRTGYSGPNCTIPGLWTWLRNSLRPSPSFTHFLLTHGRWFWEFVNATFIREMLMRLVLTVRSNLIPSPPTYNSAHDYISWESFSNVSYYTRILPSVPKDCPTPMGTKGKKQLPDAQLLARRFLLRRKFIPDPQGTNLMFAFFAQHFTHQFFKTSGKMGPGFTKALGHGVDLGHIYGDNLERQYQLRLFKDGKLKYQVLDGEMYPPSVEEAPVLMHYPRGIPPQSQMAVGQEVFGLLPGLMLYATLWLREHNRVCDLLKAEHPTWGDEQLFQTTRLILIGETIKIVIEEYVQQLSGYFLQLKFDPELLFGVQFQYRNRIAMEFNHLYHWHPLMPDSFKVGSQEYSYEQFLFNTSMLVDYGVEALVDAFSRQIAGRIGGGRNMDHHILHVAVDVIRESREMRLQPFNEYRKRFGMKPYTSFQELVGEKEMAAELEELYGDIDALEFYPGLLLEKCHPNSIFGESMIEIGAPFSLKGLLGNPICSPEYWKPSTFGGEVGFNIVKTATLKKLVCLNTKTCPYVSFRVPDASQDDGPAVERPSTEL

{"columns": ["Compound", "Unit Spec", "IC50"],
 "data": [
  ["Cc1ccc(C(=O)c2ccc(CC(=O)O)n2C)cc1 [TOLMETIN]", "nM", 350]
]}
